System: UACC-62
Assay: NCI tumour cell line growth inhibition, 48 h
Activity calls are given as the source filed them. Rule as the data show it: active = GI50 up to about 1.1 µM and inactive = higher.
Consider the following molecules and their measured GI50 readings.
metric: GI50

molecule="CC1(C)[C@H]2CC[C@@]13C(=O)N1C(=O)O[C@@H]([C@H]1Cl)C(Cl)(COCc1ccccc1)C(=O)OCCO[C@H]3C2 (stereo not given in full)" assayvalue="83.6 µM (inactive)"
molecule="Cc1cccc(C)c1NC(=O)C(=O)C(C(=O)c1ccccc1-c1ccccc1)C1OC(=O)c2ccccc21 (stereo not given)" assayvalue="17.4 µM (inactive)"
molecule=c1ccc2c(c1)[C@@H]1O[C@@H]1[C@@]13O[C@@]21[C@H]1O[C@H]1c1ccccc13 assayvalue="12.2 µM (inactive)"
molecule=Cc1cc(NC(=O)C(=O)Cc2cnc3ccccc3n2)c(S(=O)(=O)O)cc1Cl assayvalue="> 100 µM (inactive)"
molecule=Nc1ccccc1Nc1ccccc1C(=O)[O-].Nc1ccccc1Nc1ccccc1C(=O)[O-].[Zn+2] assayvalue="25.1 µM (inactive)"
molecule=NS(=O)(=O)c1ccc(NC(=O)Nc2cccc3ccccc23)cc1 assayvalue="23.6 µM (inactive)"
molecule="C/C(=C\\CCC1=CC(=O)OC1)CCC1C2C(=O)CC(C)[C@@]3(C)CC[C@]1(C)[C@@]23C (stereo not given in full)" assayvalue="> 10 µM (inactive)"
molecule=O=c1oc2ccccc2cc1-c1ccc([N+](=O)[O-])cc1 assayvalue="89.5 µM (inactive)"
molecule=CC1CCN(CC(=O)N2c3ccccc3Sc3cc4ccccc4cc32)CC1 assayvalue="> 100 µM (inactive)"
molecule="CCC(O)CCCCCCCCCCCCCCC(=O)O (stereo not given)" assayvalue="> 100 µM (inactive)"
molecule=COc1ccc(OC)c2c1ccc1c(C)c3ccccc3c(C)c12 assayvalue="> 100 µM (inactive)"
molecule=O=[N+]([O-])c1ccc(C(c2c[nH]c3ccccc23)c2c[nH]c3ccccc23)cc1 assayvalue="10.5 µM (inactive)"
molecule=CSc1ccc(/C=C2\N=C(c3ccccc3)N(/N=C3\C(=O)Nc4ccccc43)C2=O)cc1 assayvalue="> 100 µM (inactive)"
molecule="N#CC1(C#N)NC(c2ccccc2)C(C#N)(C#N)NC1c1ccccc1 (stereo not given)" assayvalue="> 100 µM (inactive)"
molecule=O=C(NC(=S)NC(=O)c1cc(O)c(O)c(O)c1)c1cc(O)c(O)c(O)c1 assayvalue="23.7 µM (inactive)"
molecule=CN(C)CCCN1c2ccccc2Sc2cnccc21 assayvalue="38.5 µM (inactive)"
molecule="CCC(C#N)NC(=O)NC(C#N)CC (stereo not given)" assayvalue="> 100 µM (inactive)"
molecule="C=C1CC(Cn2cc(C)c(=O)[nH]c2=O)(c2ccc(Cl)cc2)OC1=O (stereo not given)" assayvalue="2.44 µM (inactive)"
molecule=CCOC(=O)/C(C(=O)c1ccc[nH]1)=C1/CCCN1C assayvalue="> 100 µM (inactive)"
molecule="CCOc1ccc2nc(NC(=O)C(=O)C(C(=O)c3ccccc3-c3ccccc3)C3OC(=O)c4ccccc43)sc2c1 (stereo not given)" assayvalue="16.4 µM (inactive)"
